Reference source: PubChem BioAssay (NCATS)

System: PC15
Assay: qHTS profiling for inhibitors of Plasmodium falciparum proliferation (AID 504749); also: nearly all actives have a fitted effect of over 60% in size
Details: P. falciparum in erythrocytes, SYBR Green DNA, 72 h; series mostly up to 28.7 µM
Results filed as inconclusive are left out. The source made the active and inactive calls. Calls follow the shape of the dose curve; as a rule, active = well fitted inhibition curve with a large enough effect; inconclusive = small, poorly fitted or top-dose-only effect; inactive = flat fitted curve, though single readings scatter.
Log the outcome using a class from active, inactive

Please state the recorded outcome for this compound: CCCCC1=NC2(CCCC2)C(=O)N1Cc1ccc(-c2ccccc2-c2nn[nH]n2)cc1
inactive

Called result for COCc1c(C(C)C)nc(C(C)C)c(/C=C/[C@@H](O)C[C@@H](O)CC(=O)O)c1-c1ccc(F)cc1
inactive

Please let me know the test result on file for Cc1ncc(CSSCc2cnc(C)c(O)c2CO)c(CO)c1O .
inactive

Entry NCCC(O)(P(=O)(O)O)P(=O)(O)O : call = ?
inactive

Lab log entry: COc1ccc(CCN2CCC(Nc3nc4ccccc4n3Cc3ccc(F)cc3)CC2)cc1 — outcome as called in the assay?
active

Entry COc1ccc(C2C(=O)c3ccccc3C2=O)cc1 : call = ?
inactive

Per the assay record, what outcome was assigned to Cc1c(C(C)C)c(=O)n(-c2ccccc2)n1C ?
inactive

Which result was noted for this compound in the test: C1CCc2nnnn2CC1
inactive

# fetch the recorded call for COc1cc2c(cc1OC)C(=O)C(CC1CCN(Cc3ccccc3)CC1)C2 (stereo unspecified) here
inactive

Test call for this compound, please: CCOC(=O)c1cccc(N)c1
inactive

I would be grateful if you could indicate the recorded call for Cc1c(N(C)CS(=O)(=O)O)c(=O)n(-c2ccccc2)n1C .
inactive

Short answer needed: outcome of this test for Nc1cc(Cl)c(NC2=NCCN2)c(Cl)c1 ?
inactive

Give the logged outcome of this assay for the following compound: N[C@@H](Cc1cnc[nH]1)C(=O)O
inactive

Test call for this compound, please: CCN1CCCC1=O
inactive

I would be grateful if you could indicate the recorded call for NC(CO)(CO)CO .
inactive

Please let me know the test result on file for NCCCC[C@H](N[C@@H](CCc1ccccc1)C(=O)O)C(=O)N1CCC[C@H]1C(=O)O .
inactive

GET /call?item= O=C(O)CCCCC(=O)O returns the recorded outcome of this test.
inactive

What classification did CC(=O)OCC(=O)NCCCOc1cccc(CN2CCCCC2)c1 end up with in this test?
inactive

So what was the verdict on O=C(OCCOCCO)c1ccccc1Nc1cccc(C(F)(F)F)c1 in this test?
inactive

Test call, this compound: CC(=O)Nc1c(I)cc(I)c(C(=O)O)c1I
inactive

Hi, sorry to bother you, what did the test record for CCCCCCCCCCCCCCCC[N+](C)(C)CC ?
active

Identify the outcome logged in this assay for the compound shown: NC(=NCCCCCCN=C(N)/N=C(\N)Nc1ccc(Cl)cc1)/N=C(\N)Nc1ccc(Cl)cc1
active

Hello, I am checking results. What call was entered for Oc1ccc(O)cc1 ?
inactive

Short answer needed: outcome of this test for O=C(Nc1ccc(Cl)c(Cl)c1)C1CC1 ?
inactive

Look up the recorded call for CCOC(=O)OC(C)OC1=C(C(=O)Nc2ccccn2)N(C)S(=O)(=O)c2ccccc21 (stereo unspecified) in this test.
inactive

What classification did C[C@@H](CN(C)C)CN1c2ccccc2Sc2ccccc21 end up with in this test?
inactive

How did this test come out for O=C(Nc1ccc(Oc2ccc(Cl)cc2)c(Cl)c1)c1cc(I)cc(I)c1O ?
inactive

// return assay outcome for O=C(CCN1CCC(c2ccccc2)C1)c1ccc2c(c1)OCCO2 (stereo unspecified)
inactive

What outcome does the record of this test show for O=C1OC(c2ccc(O)cc2)(c2ccc(O)cc2)c2ccccc21 ?
inactive

Identify the outcome logged in this assay for the compound shown: CC(Cc1cccc(C(F)(F)F)c1)NCCOC(=O)c1ccccc1 (stereo unspecified)
inactive

State the result this test recorded for COc1cc(C(=S)N2CCOCC2)cc(OC)c1OC .
inactive

Each compound tested received a call. Report the one for CC(C)(CO)[C@@H](O)C(=O)NCCCO .
inactive

GET /call?item= c1ccc(-c2ccc(C(c3ccccc3)n3ccnc3)cc2)cc1 (stereo unspecified) returns the recorded outcome of this test.
active

Recorded test outcome, item CC(C)(C)CC(C)(C)c1ccc(OCCOCC[N+](C)(C)Cc2ccccc2)cc1
active

Hi, do you know how CN(C)CCCOc1nn(Cc2ccccc2)c2ccccc12 came out in this test?
inactive

# lookup: test call for CN(C)/N=N/c1nc[nH]c1C(N)=O
inactive

Record request — test call for CCCCOc1cc(C(=O)NCCN(CC)CC)c2ccccc2n1
inactive

How did this test come out for COc1cc(-c2ccc(=O)[nH]n2)ccc1OC(F)F ?
inactive

Name the outcome recorded for CCOC(=O)COc1ccc2c(C)c(CCN(CC)CC)c(=O)oc2c1Cl in the assay.
inactive

Each compound tested received a call. Report the one for COc1cc(NS(C)(=O)=O)ccc1Nc1c2ccccc2nc2ccccc12 .
active

What call does the record list for CCCCCCc1ccc(O)cc1O ?
inactive

Lab log entry: CCOc1ccc(NC(=O)CC(C)O)cc1 (stereo unspecified) — outcome as called in the assay?
inactive

Would you mind telling me which call this test gave Cc1c(C)n(CCN(C)C)c2ccc(C(=O)OCCN(C)C)cc12 ?
inactive

// param item: CCCCc1nc(Cl)c(CO)n1Cc1ccc(-c2ccccc2-c2nn[nH]n2)cc1 ; yields the recorded call
inactive

Record lookup: outcome of this test for CCCN1CCCC[C@H]1C(=O)Nc1c(C)cccc1C ?
inactive

Dear colleague, could you share the recorded outcome for CCOC(=O)n1ccn(C)c1=S when you have a moment?
inactive
